- tested_target: Lyn (Homo sapiens, UniProt P07948)
- Sequence (P07948 whole entry): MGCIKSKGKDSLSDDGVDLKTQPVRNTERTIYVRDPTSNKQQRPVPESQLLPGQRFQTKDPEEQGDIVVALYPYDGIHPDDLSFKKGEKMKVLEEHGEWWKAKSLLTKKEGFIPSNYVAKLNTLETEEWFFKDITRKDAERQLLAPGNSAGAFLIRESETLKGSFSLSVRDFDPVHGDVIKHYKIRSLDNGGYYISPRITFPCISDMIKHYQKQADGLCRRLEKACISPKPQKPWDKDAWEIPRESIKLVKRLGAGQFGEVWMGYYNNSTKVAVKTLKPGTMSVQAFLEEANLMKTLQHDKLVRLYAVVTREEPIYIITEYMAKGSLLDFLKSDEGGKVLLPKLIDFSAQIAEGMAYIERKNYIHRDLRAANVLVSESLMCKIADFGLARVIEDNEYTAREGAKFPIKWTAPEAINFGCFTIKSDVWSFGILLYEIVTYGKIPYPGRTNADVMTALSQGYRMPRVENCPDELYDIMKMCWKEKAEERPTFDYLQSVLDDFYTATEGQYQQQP
reported_metric: IC50

CNc1cc(O)c2c(c1)/C=C/C[C@H](O)[C@H](O)C(=O)/C=C\[C@@H](C)[C@H](C)OC2=O : < 0.214 µM

---

- System: PANC-1 pancreatic cancer cells
- assay_explanation: PANC-1 cell growth, alone or in combination with SN-38 (CellTiter-Glo)
- stated_conditions: read-out: IC50 for cell growth inhibition in combination setting; SN-38 with 1 μM of compound 091 or compound 106, 96 h
reported_metric: IC50 (µM)

CCc1c2c(nc3ccc(O)cc13)-c1cc3c(c(=O)n1C2)COC(=O)[C@]3(O)CC [SN-38, reference compound] : 0.0162
